assay: Water solubility of the active-substance salts (saturated solution in deionised water, HPLC); format: physicochemical; details: thermodynamic from solid, 25° C., 20 hours stirring
Counter-ions that a name gives are not always drawn.
property_label: solubility at 20 h

Task: What measured solubility at 20 h goes with COc1cccc(C2(O)CCCCC2CN(C)C)c1 (stereo not shown) [tramadol hydrochloride] ?
Result: > 300 mg/mL
